Molecular target: hTAS2R16 (ssr3-hTAS2R16) (Homo sapiens, UniProt Q9NYV7, F93T)
Assay: Fluo-4 calcium assay, HEK293T + Galpha16gust44
QUANTITY_NAME: EC50 (mM)
The reply should contain only the number, in mM.

Recorded result, OCc1ccccc1O[C@@H]1O[C@H](CO)[C@@H](O)[C@H](O)[C@H]1O [salicin] , EC50: 12

###

Target: hTAS2R16 (ssr3-hTAS2R16) (Homo sapiens)
Assay: Fluo-4 calcium assay, HEK293T + Galpha16gust44
QUANTITY_NAME: pEC50
Quick note: pEC50 means taking -log10 of the concentration in moles per liter.

pEC50 in this record for OCc1ccccc1O[C@@H]1O[C@H](CO)[C@@H](O)[C@H](O)[C@H]1O : 3.66

# pEC50 (compound: OC[C@H]1O[C@@H](Oc2ccc(O)cc2)[C@H](O)[C@@H](O)[C@@H]1O ) is 2.87

###

Target: hTAS2R16 (ssr3-hTAS2R16) (Homo sapiens, UniProt Q9NYV7, Q177E)
Sequence (Q9NYV7 1-291 Q177E): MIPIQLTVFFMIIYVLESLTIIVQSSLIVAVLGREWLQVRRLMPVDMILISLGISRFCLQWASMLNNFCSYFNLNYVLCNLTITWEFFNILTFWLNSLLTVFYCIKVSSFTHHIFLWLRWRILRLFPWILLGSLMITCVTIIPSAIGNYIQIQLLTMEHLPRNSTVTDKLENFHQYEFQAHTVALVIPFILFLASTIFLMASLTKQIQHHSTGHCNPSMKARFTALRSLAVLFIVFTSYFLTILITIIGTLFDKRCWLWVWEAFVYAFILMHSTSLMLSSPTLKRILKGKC
Assay: Fluo-4 calcium assay, HEK293T + Galpha16gust44
Type: cell-based
QUANTITY_NAME: EC50 (µM)
Answer with a number only, understood to be in µM.

So for OCc1ccccc1O[C@@H]1O[C@H](CO)[C@@H](O)[C@H](O)[C@H]1O , the logged EC50 turned out to be 220

###

Target: hTAS2R16 (ssr3-hTAS2R16) (Homo sapiens, UniProt Q9NYV7, F240W)
Assay: Fluo-4 calcium assay, HEK293T + Galpha16gust44
QUANTITY_NAME: pEC50
Please treat pEC50 as minus the base-10 logarithm of the molar concentration.

Memo: OCc1ccccc1O[C@@H]1O[C@H](CO)[C@@H](O)[C@H](O)[C@H]1O , reported pEC50: 2.69

###

Molecular target: hTAS2R16 (ssr3-hTAS2R16) (Homo sapiens, UniProt Q9NYV7, Q177N)
Assay: Fluo-4 calcium assay, HEK293T + Galpha16gust44
QUANTITY_NAME: EC50 (µM)
Please reply with the bare figure in µM and do not write the unit itself.

Consider OCc1ccccc1O[C@@H]1O[C@H](CO)[C@@H](O)[C@H](O)[C@H]1O . Its measured EC50 is 390

###

Biological target: hTAS2R16 (ssr3-hTAS2R16) (Homo sapiens, UniProt Q9NYV7, F93L)
Assay: Fluo-4 calcium assay, HEK293T + Galpha16gust44
QUANTITY_NAME: pEC50
Scale for pEC50: -log10 of concentration given in mol/L; no unit attached.

Documented pEC50 of OCc1ccccc1O[C@@H]1O[C@H](CO)[C@@H](O)[C@H](O)[C@H]1O [salicin] : 2.38
